Can you tell me inhibition for the items I'm about to list?
# SYSTEM: MAP kinase-activated protein kinase 2 (Homo sapiens) (UniProt P49137);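 note: values are mean inhibition from the GSK PKIS screen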
# Sequence (P49137 whole entry, looked up): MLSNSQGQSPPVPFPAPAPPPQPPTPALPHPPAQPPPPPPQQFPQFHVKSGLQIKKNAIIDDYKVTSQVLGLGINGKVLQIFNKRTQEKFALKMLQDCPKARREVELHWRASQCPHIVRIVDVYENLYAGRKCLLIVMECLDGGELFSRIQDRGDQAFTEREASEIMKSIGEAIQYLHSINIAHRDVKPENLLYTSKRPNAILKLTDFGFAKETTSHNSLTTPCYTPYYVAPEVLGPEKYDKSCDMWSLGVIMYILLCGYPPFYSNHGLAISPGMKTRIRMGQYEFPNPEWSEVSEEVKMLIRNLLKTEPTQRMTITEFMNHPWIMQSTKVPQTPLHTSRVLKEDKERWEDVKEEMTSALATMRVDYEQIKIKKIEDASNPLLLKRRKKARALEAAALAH
# CONDITION_NOTES: at 1 µM
Give bare numbers, in %.

# annotated cases, reported inhibition shown
smiles_input=Nc1ccc(C#Cc2cncnc2Nc2ccc(OCc3cccc(F)c3)c(Cl)c2)cc1 system="MAP kinase-activated protein kinase 2 (Homo sapiens) (UniProt P49137)" property_label=inhibition value_measured=0.48
smiles_input=COc1cccc(-n2ncc3c(N/N=C/c4ccc(S(C)(=O)=O)cc4)ncnc32)c1 system="MAP kinase-activated protein kinase 2 (Homo sapiens) (UniProt P49137)" property_label=inhibition value_measured=-0.87
smiles_input=CN(C)CCCn1c(-c2nonc2N)nc2cnccc21 system="MAP kinase-activated protein kinase 2 (Homo sapiens) (UniProt P49137)" property_label=inhibition value_measured=1.94
smiles_input=Cc1ccc2c(-c3ccnc(Nc4ccc5c(c4)OCCO5)n3)c(-c3ccc(C(F)(F)F)cc3)nn2n1 system="MAP kinase-activated protein kinase 2 (Homo sapiens) (UniProt P49137)" property_label=inhibition value_measured=-0.12
smiles_input=Cc1ccc(O)cc1Nc1ccnc2ccc(S(C)(=O)=O)cc12 system="MAP kinase-activated protein kinase 2 (Homo sapiens) (UniProt P49137)" property_label=inhibition value_measured=5.17

Kindly give each listed record's inhibition.
1. CCOc1nccc2c1nc(-c1nonc1N)n2CC
2. FC(F)(F)c1ccc(-c2nn3ncccc3c2-c2ccnc(Nc3ccc4c(c3)OCCO4)n2)cc1

Result:
2.83
3.56
